Recorded values, source PubChem BioAssay AID1347165.

# TARGET_UNDER_TEST: Lysine-specific demethylase 5B (Homo sapiens)
# ASSAY_INFO: Primary screen for KDM5B Histone Demethylases FDH-coupled qHTS; also: nearly all actives have a fitted effect of over 70% in size
# DETAILS: FDH-coupled NADH fluorescence (FDH is formaldehyde dehydrogenase); series mostly up to 57.7 µM
The whole screen tested about 220,000 compounds, of which about 5,700 (2.6%) were called active. Inconclusive results (about 18%) are left out. Calls follow the shape of the dose curve; as a rule, active = well fitted inhibition curve with a large enough effect; inconclusive = small, poorly fitted or top-dose-only effect; inactive = no such curve, though single readings can be large or run the other way. Shown is part of a subset that was picked to be rich in actives.
Pick from 1 for active, -1 for inactive when you respond.

Assay outcome for O=c1[nH]c(-c2ccncc2)nc2c1CCN(S(=O)(=O)N1CCCC1)C2 : what was it?
-1

Assay outcome for CCc1nc2nccc(-c3ccco3)n2n1 : what was it?
1

Assay outcome for COc1cc(F)ccc1-c1ccc(COc2ccc3c(cnn3CCC(=O)O)c2)cc1 : what was it?
-1

Assay outcome for Cc1ccc(-c2ccc3nnc(CNC(=O)c4ccncc4)n3n2)cc1C : what was it?
1

Assay outcome for Cc1ccc(CNC(=O)c2cc(=O)c3ccc(C)c(C)c3o2)cc1 : what was it?
-1
